Catalogue of Survival rate readings, one per entry.
# Subject Of Test: T1, soluble human Fas ligand molecule (human, UniProt P48023 130-281, limits assumed)
# T1 sequence (looked up): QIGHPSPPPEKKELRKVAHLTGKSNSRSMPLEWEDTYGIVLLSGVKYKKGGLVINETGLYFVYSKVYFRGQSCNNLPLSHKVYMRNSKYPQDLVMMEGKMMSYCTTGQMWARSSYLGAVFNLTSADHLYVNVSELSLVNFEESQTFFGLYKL
# Procedure Summary: cell-based or functional assay
Unit % implied. Number only.

Field: example entries. Status: answers known.
[
  {
    "Binder": "monoclonal antibody NOK1 (produced by Hybridoma NOK1, FERM BP-5044) (antibody, V domains shown, Used as hybridoma culture supernatant, as antibody purified from ascites, biotin-labelled, or coupled to Sepharose beads; also called NOK1 antibody; biotinized monoclonal antibody NOK1) VH: VQLQESGPELVKPGASVKISCKASGYAFSSSWMNWVKQRPGKGLEWIGRIYPGDGDTNDNGKFKGKATLTADKSSSTAYMQLSSLTSEDSAVYFCARSYYYDGSPWFTYWGQGTTVTVSS VL: DIQMTQSPSSLSASLGDRVTISCRASQDISNYLNWYQQKPDGTVKLLIYYTSRLHSGVPSRFSGSGSGTDYSLTISNLEPEDIATYFCQQYSEFPWTFGGGTKLEIKR",
    "Display Unit": "%",
    "Survival rate": 99.3
  },
  {
    "Binder": "monoclonal antibody NOK3 (produced by Hybridoma NOK3, FERM BP-5046) (antibody, V domains shown, also called NOK3 antibody) VH: VKLQESGPELVKPGASVKISCKASGYAFSSSWMNWVKQRPGKGLEWIGRIYPVNGDTNYNGKFKGKATLTADKSSSTAYMQLSSLTSEDSAVYFCATDGYWYFDVWGQGTTVTVSS VL: NIVMTQSPKSMSMSVGERVTLSCKASENVDIYVSWYQQKPEQSPKLLIYGTSNRYTGVPDRFTGSGSATDFTLTISNVQAEDLSDYYCVQSYSYPWTFGGGTKLEIKR",
    "Display Unit": "%",
    "Survival rate": 101
  },
  {
    "Binder": "monoclonal antibody NOK5 (produced by Hybridoma NOK5, FERM BP-5048) (antibody, V domains shown) VH: VQLQESGAEPAKPGASVKMSCKASGYTFTTYWMHWVKQRPGQGLEWIGYINPSSGYTEYNQKFKDKATLTADKSSSTAYMQLISLTSEDSAVYYCARRGNYYYFDYWGQGTTVTVSS VL: DVLMTQTPKFLPVSAGDRVTMTCKASQSVGNNVAWYQQKPGQSPKLLIYYTSNRYTGVPDRFTGSGSGTDFTFTISSVQVEDLAVYFCQQHYSSPYTFGSGTKLE",
    "Display Unit": "%",
    "Survival rate": 98.2
  }
]

In the following, a different binder is considered.
[ask] Could you tell me which Survival rate is on file for monoclonal antibody NOK4 (produced by Hybridoma NOK4, FERM BP-5047) (antibody, V domains shown) VH: VQLQESGPGLVKPSQSLSLTCSVTGYSITSGYYWNWIRQFPGNKLEWMGYISYDGSNNYNPSLKNRISITRDTSKNQFFLKLNSVTTEDTATYYCAVYYYDGSSFDYWGQGTTVTVSS VL: DIVLTQSPASLAVSLRQRATISCRASEGVDSYGISFMHWYQQKPGQPPKLLIYRASYLKSGVPARFSGSGSRTDFTLTIDPVEADDAATYYCQQNNEDPWTFGGGTKLEIKR ?
[reply] 110
